- Tested on: OVCAR3 cells
- assay text: Cell viability in ovarian cancer cell line OVCAR3
- Assay type: cell-based
- particulars: OVCAR3, 800 cells per well; FIG. 13(b)
reported endpoint: IC50 (nM)

* BCLxL #5: siRNA sequence used to target BCLxL, SEQ. ID No. 14 (no GEM) (GCGTGGAAAGCGTAGACAAGGAGAT; listed as DNA, chemistry not given here) | 2.7

* * *

- Tested on: MDA-MB231 cells
- assay text: Cell viability in triple negative breast cancer cell line MDA-MB231
- Format: cell-based
- particulars: MDA-MB231, 400 cells per well; FIG. 13(a)
pIC50: −log10 of the molar value.
reported endpoint: pIC50

* BCLxL #5: siRNA sequence used to target BCLxL, SEQ. ID No. 14 (no GEM) (GCGTGGAAAGCGTAGACAAGGAGAT; listed as DNA, chemistry not given here) | 9.30

* * *

- Test system: MiaPaCa-2 cells
- assay text: Cell viability (CellTiter-Glo) in MiaPaCa-2 pancreatic cancer cells after transfection
- Assay type: cell-based, human
- particulars: Homo sapiens, MIA PaCa-2; with lipofectamine (GEM alone for gemcitabine); FIG. 2; read-out: ID50, MiaPaCa cells
pIC50: −log10 of the molar value.
reported endpoint: pIC50

- Nc1ccn([C@@H]2O[C@H](CO)[C@@H](O)C2(F)F)c(=O)n1: 8.10

// data source = patent US20250027086A1
